# Tested on: RXF 393 renal
# Procedure details: NCI-60 one-dose screen, 48 h (100 = growth as untreated, 0 = no growth, -100 = all killed)
# Test settings: 10 µM unless noted
About 83,000 compounds went through this panel and 20% of them were active in at least one assay; those are over-represented in the sample as a whole. Activity calls are given as the source filed them. How the source made its calls: active means growth percent below 10; inactive means the rest.
Recorded metric: growth

Recorded growth, per entry:
CC(C)N(C(=S)SSC(=S)N(C(C)C)C(C)C)C(C)C : 120% (inactive)
CCOC(=O)C(CCCCC(NC(C)=O)(C(=O)OCC)C(=O)OCC)(NC(C)=O)C(=O)OCC : 102% (inactive)

Record growth per entry; entries follow.
1. Oc1c(C(Nc2cccc3ccccc23)c2ccccc2)ccc2cccnc12 (stereo not given)
2. COc1cc(OC)cc(-c2ccc(-c3ccc(C(=N)N)s3)s2)c1
3. COC(=O)[C@H](Cc1cn(C)cn1)NC(=O)[C@H](CC(C)C)NC(=O)Nc1cc(C(F)(F)F)cc(C(F)(F)F)c1
4. CCCCCCCC/C=C\CCCCCCCC(=O)OCCCCCC
5. O=C(c1ccc(OCCN2CCCCC2)cc1)c1c(-c2ccc(O)cc2)sc2cc(O)ccc12
6. COc1ccccc1CNCCCN1C(=O)c2ccc3c4c(ccc(c24)C1=O)C(=O)N(CCCOCCCCOCCCN)C3=O
7. Fc1ccc(-c2cnc3nonc3n2)c(F)c1
8. CC(C)c1nc2ccccc2n1CC(=O)N/N=C/c1cccc(O)c1

Marked response:
["69.4% (inactive)", "-73.9% (active)", "-89.3% [100 µM] (active)", "104% (inactive)", "70.2% (inactive)", "-42.6% (active)", "111% (inactive)", "104% (inactive)"]
